Attribution: PubChem BioAssay

- Assay Explanation: basal RPMI8226 mitochondrial membrane potential changes, profiling panel, cell-based, JC-1 fluorescence, 24 h, 100 nL compound (AID 1169); also: test concentration not given here
- Applied Conditions: RPMI8226 myeloma, JC-1 mitochondrial potential fluorescence, higher = more signal
Attribute Measured: z-score
Write the number on its own, no unit after it.

Past entries and their recorded results:
>>> reported_measurement("COc1ccc(C#Cc2ccc3c(c2)[C@]2(C(=O)N3)[C@H](c3ccc(OCCO)cc3)N3[C@H](c4ccccc4)[C@H](c4ccccc4)OC(=O)[C@H]3[C@@H]2C(=O)O)cc1")
-1.19
>>> reported_measurement("CC(=O)NCCCC[C@@H]1NC(=O)[C@@H]2C[C@H](C(=O)NCCCCCC[N+](C)(C)C)[C@H](c3ccc(O)cc3)N2C1=O")
0.169

Record request: z-score value, item `Cc1ccc(S[C@]2(C(=O)NCCN3CCOCC3)CC(=O)N(C3CCCCC3)[C@@H]2c2ccc(CO)cc2I)cc1`
-0.457

* * *

Measured composite z-score values are reported for all entries that follow.
- System Name: Concanavalin-A (Canavalia ensiformis) (UniProt P02866)
- Sequence (P02866 whole entry, looked up): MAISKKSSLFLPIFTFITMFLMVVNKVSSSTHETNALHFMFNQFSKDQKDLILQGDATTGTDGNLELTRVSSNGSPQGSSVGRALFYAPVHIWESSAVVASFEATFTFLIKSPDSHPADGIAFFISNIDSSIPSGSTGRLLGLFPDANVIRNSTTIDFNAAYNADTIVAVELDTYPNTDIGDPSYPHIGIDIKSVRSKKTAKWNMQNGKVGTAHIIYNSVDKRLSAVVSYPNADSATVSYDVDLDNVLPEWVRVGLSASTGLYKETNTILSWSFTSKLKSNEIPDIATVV
- Assay Explanation: ConA small-molecule binders, primary screen, artefact control for SMM control protein annotation, biochemical, small-molecule microarray, Alexa647 label, 635 nm (AID 1127);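 also: z combines 667 nm emission intensity with signal-to-noise across three replicate slides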
- Applied Conditions: ConA-A647 binding fluorescence, higher = more signal
Write the number on its own, no unit after it.

>>> reported_measurement("O=C1C2C=CC(C(O)c3cccc(O)c3)N(Nc3ccccc3F)C2C(=O)N1c1ccccc1 (configuration not stated)")
0.0597
>>> reported_measurement("C[C@H]1NC(=O)C([C@@H](C)OCc2ccccc2)NC(=O)[C@@]23C(=O)N[C@@H](Cc4ccccc4)C2[C@H](C)[C@@]2(C)O[C@H]2C3/C=C/C/C=C\\CNC1=O (some centres not stated)")
-0.401
>>> reported_measurement("CCN(CC)c1ccc(N2CC=CC34O[C@@H]5C=CCOC(=O)[C@@H]5[C@H]3C(=O)N(CCCO)[C@@H]4C2=O)cc1 (some centres not stated)")
-1.74
>>> reported_measurement("N#Cc1ccc(C(O)C2C=CC3C(=O)NC(=O)C3N2Nc2ccccn2)cc1 (configuration not stated)")
0.468
>>> reported_measurement("C=CCNC(=O)[C@@H]1[C@H]2C(=O)O[C@H](c3ccccc3)[C@H](c3ccccc3)N2[C@H](c2ccccc2OCCO)[C@@]12C(=O)N(C(=O)OCCOC)c1ccc(C#CCCO)cc12")
0.953
>>> reported_measurement("C=CCN1C(=O)[C@]2(O[C@H](CCn3cc([C@H](O)c4ccccc4)nn3)[C@@H]([Si](C)(C)c3ccc(OC)cc3)[C@@H]2C)c2cc(N3C(=O)c4cccc5cccc3c45)ccc21")
0.471

Now let's try a different one.
Record request: composite z-score value, item `CCOC(=O)C1=C[C@@H](C(C)(C)C)N(S(=O)(=O)c2ccc(C)cc2)[C@H]1c1ccccc1Cl`
1.12

* * *

- Assay Explanation: small-molecule binders of probe aNOTCH3, primary screen, biochemical, small-molecule microarray, 635/667 nm fluorescence (AID 1120);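 also: probe is a biotin-tagged antibody raised against NOTCH3 rather than NOTCH3 protein; score merges spot fluorescence near 667 nm with spot signal to noise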
- Applied Conditions: higher = more signal
Attribute Measured: composite z-score

Past entries and their recorded results:
>>> reported_measurement("C=C(/C(=C/C[C@H](OC(=O)c1ccncc1)c1ccccc1OCCO)c1cc(C(=O)OC)ccc1OC)C(C)C")
-0.0288
>>> reported_measurement("CC(C)=CCN(C(=O)C#Cc1ccccc1)[C@H](CO)c1ccccc1")
0.0259

Now let's try a different one.
Record request: composite z-score value, item `COCCn1c(C(=O)N2CCCC2)cc2c1C[C@H]1CN(C(=O)c3ccccc3)[C@@](Cc3ccccc3)(C(=O)OC)[C@@H]21`
0.676

* * *

Measured composite z-score values are reported for all entries that follow.
- System Name: Streptavidin (Streptomyces avidinii) (UniProt P22629)
- Sequence (P22629 whole entry, looked up): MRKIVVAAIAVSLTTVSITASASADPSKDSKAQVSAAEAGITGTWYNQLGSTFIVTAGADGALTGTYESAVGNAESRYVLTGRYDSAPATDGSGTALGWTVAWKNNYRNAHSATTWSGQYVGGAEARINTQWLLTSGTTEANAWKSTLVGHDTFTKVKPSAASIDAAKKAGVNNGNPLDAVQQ
- Assay Explanation: streptavidin binders on small-molecule microarray, primary screen, artefact control for SMM compound annotation, biophysical, 635/667 nm fluorescence (AID 1147);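 also: signal reflects streptavidin binding to arrayed compounds as a control protein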
- Applied Conditions: streptavidin binding, higher = more signal

Past entries and their recorded results:
>>> reported_measurement("[N-]=[N+]=NCc1ccccc1C[C@@]1(C(=O)O)N=C(c2ccc(OCCCO)cc2)O[C@@H]1c1ccccc1CN=[N+]=[N-]")
0.465
>>> reported_measurement("C=CC[C@@]1(C(=O)O)N=C(c2ccc(OCCCO)cc2)O[C@@H]1c1ccccc1CN=[N+]=[N-]")
1.93

Now let's try a different one.
Record request: composite z-score value, item `CCOC(=O)C1=CC[C@@H](c2ccccc2Cl)N(S(=O)(=O)c2ccc(C)cc2)[C@H]1c1cccc(OC)c1`
0.333

* * *

- System: Wnt5a (protein binding on small-molecule microarray)
- Assay Explanation: Wnt5a binders on small-molecule microarray, primary screen, biophysical, 635/667 nm fluorescence (AID 1142);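 also: fluorescence read at 667 nm with signal to noise per printed feature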
- Applied Conditions: 635 nm fluorescence, higher = more signal
Attribute Measured: composite z-score
Write the number on its own, no unit after it.

Past entries and their recorded results:
>>> reported_measurement("Cc1ccc(S[C@]2(C(=O)NC3CC3)CC(=O)N(Cc3cc(C(F)(F)F)cc(C(F)(F)F)c3)[C@@H]2c2ccc(CO)cc2I)cc1")
0.272
>>> reported_measurement("C#CCN([C@H](/C=C/C1CC1)[C@@H](O)Cc1ccccc1)[C@@H](Cc1ccccc1)C(=O)OC")
-0.48
>>> reported_measurement("C=CCC(OC(C)=O)[C@@H]1[C@@H](N(Cc2cccc3ccccc23)C(=O)c2ccc(-c3ccccc3)cc2)c2cc(OCCCO)ccc2N1C(=O)c1ccc2ccccc2n1 (stereo partly drawn)")
-0.133
>>> reported_measurement("C/C=C/CN(C(=O)C#Cc1ccccc1)[C@H](CO[Si](C)(C)C(C)(C)C)c1ccccc1")
-0.515
>>> reported_measurement("COCCCN1C(=O)[C@@]2(Cc3ccccc31)c1ccccc1C(=O)N(Cc1ccccc1OC)[C@H]2c1ccc(CO)cc1")
-0.0515
>>> reported_measurement("CCCC[C@@H]1C[C@H]1[C@@H](NC(=O)Cc1ccccc1)c1ccc(Cl)cc1")
0.545
>>> reported_measurement("C=C(CCCC)/C(=C/C[C@H](OC(C)=O)c1cccc(OCCO)c1)c1cc(C(=O)OC)ccc1OC")
-0.229
>>> reported_measurement("Cc1ccccc1C(O)C1C=CC2C(=O)N(c3ccccc3)C(=O)C2N1Nc1ccccc1F (stereo not drawn)")
0.0624
>>> reported_measurement("COC(=O)[C@@]1(Cc2ccc(OC)cc2)[C@@H]2[C@@H](CC(=O)[C@H]2CC(=O)C(=O)N2CCCC2)CN1C(=O)c1ccccc1")
2.07
>>> reported_measurement("COc1ccc([Si](C)(C)[C@@H]2[C@@H](CC(=O)N(CCO)Cc3ccccc3)O[C@]3(C(=O)N(Cc4ccc(N5CCC5=O)cc4)c4ccccc43)[C@H]2C)cc1")
-0.0009

Now let's try a different one.
Record request: composite z-score value, item C=CCC(OC(C)=O)[C@@H]1[C@@H](N(Cc2cc3ccccc3o2)C(=O)Cc2ccc(OC)cc2)c2cc(OCCCO)ccc2N1C(=O)Cc1ccc(OC)cc1 (stereo partly drawn)
-0.0737

* * *

- Test system: Sonic hedgehog protein (Shh)
- Assay Explanation: small-molecule binders of Shh protein, primary screen, biochemical, small-molecule microarray, 635/667 nm fluorescence (AID 1151);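 also: Shh protein binding to compounds spotted on small-molecule microarray slides; score combines spot fluorescence intensity with signal-to-noise across triplicate slides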
- Applied Conditions: small-molecule microarray binding, 635 nm fluorescence; higher = more signal
Measured composite z-score values are reported for all entries that follow.

>>> reported_measurement("COc1ccc([Si](C)(C)[C@@H]2[C@@H](CC(=O)N(CCO)Cc3ccccc3)O[C@]3(C(=O)N(Cc4ccc(N5CCC5=O)cc4)c4ccccc43)[C@H]2C)cc1")
0.7
>>> reported_measurement("CCCC=C(CCC)[C@@H](NC(=O)c1ccccc1)c1ccc(C(=O)OC)cc1")
0.293
>>> reported_measurement("Cc1ccccc1C(O)C1C=CC2C(=O)N(c3ccccc3)C(=O)C2N1Nc1ccccc1F (stereo unspecified)")
-0.255
>>> reported_measurement("CC(C)(C)N1CC=CC23O[C@@H]4/C=C\\CCCOC(=O)C4[C@H]2C(=O)N(CCCCCCO)[C@@H]3C1=O (stereo partly specified)")
-0.22
>>> reported_measurement("CO[C@H]1O[C@H](CO)[C@@H](OC(=O)Nc2ccc(C(F)(F)F)cc2)[C@H](OC(=O)Nc2ccccc2-c2ccccc2)[C@@H]1OC(=O)Nc1ccccc1-c1ccccc1")
1.34

Now let's try a different one.
Give composite z-score (Sonic hedgehog protein (Shh)) of the following compound: O=C1OCCC=C[C@H]2OC34C=CCN(c5ccc(Cl)cc5)C(=O)[C@H]3N(CCO)C(=O)[C@@H]4C12 (stereo partly specified)
-0.524

* * *

- System Name: Dihydroorotate dehydrogenase (quinone), mitochondrial (Plasmodium falciparum (isolate 3D7)) (UniProt Q08210)
- Sequence (Q08210 whole entry, looked up): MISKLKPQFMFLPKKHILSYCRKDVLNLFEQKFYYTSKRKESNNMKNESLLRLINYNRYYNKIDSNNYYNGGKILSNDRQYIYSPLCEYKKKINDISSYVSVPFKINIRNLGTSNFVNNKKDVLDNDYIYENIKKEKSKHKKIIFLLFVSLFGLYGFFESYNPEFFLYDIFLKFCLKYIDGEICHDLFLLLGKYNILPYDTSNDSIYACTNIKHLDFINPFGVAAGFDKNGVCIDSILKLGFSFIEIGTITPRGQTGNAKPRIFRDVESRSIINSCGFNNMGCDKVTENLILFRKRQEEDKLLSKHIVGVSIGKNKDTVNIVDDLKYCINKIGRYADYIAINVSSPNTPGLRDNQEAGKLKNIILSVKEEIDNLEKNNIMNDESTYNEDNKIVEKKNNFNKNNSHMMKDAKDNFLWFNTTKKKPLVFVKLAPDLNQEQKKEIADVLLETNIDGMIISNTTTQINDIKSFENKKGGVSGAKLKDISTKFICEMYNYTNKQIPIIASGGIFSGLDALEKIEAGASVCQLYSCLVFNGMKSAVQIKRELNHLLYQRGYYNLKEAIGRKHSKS
- Assay Explanation: PfDHODH enzyme inhibitors, primary screen, biochemical, C-terminal His tag, absorbance 600 nm (AID 1175);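 also: recombinant parasite enzyme with a five histidine tag at its C terminus; test concentration not given here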
- Applied Conditions: DCIP absorbance 600 nm, higher = more signal, called active from +8 up or from −8 down
Record rule met whenever composite z-score is at -0.2 or higher; record rule not met when lower.

Please review the following examples before continuing.
>>> discrete_label("N#Cc1ccc(C(O)C2C=CC3C(=O)NC(=O)C3N2Nc2ccccn2)cc1 (centres undefined)")
"rule met"
>>> discrete_label("CC(=O)n1cc(C(O)C2C=CC3C(=O)N(c4ccccc4)C(=O)C3N2Nc2ccccc2F)c2ccccc21 (centres undefined)")
"rule not met"
>>> discrete_label("C=CCN1C(=O)[C@]2(O[C@H](CCn3cc([C@H](O)c4ccccc4)nn3)[C@@H]([Si](C)(C)c3ccc(OC)cc3)[C@@H]2C)c2cc(N3C(=O)c4cccc5cccc3c45)ccc21")
"rule met"
>>> discrete_label("C=CCC(OC(C)=O)[C@@H]1[C@@H](N(Cc2ccc(-c3ccccc3)cc2)C(=O)c2ccc(C)cc2)c2cc(OCCCO)ccc2N1C(=O)c1ccc2ccccc2c1 (some centres undefined)")
"rule not met"
>>> discrete_label("[N-]=[N+]=NCc1ccccc1[C@@H]1OC(c2ccc(OCCCO)cc2)=N[C@]1(Cc1ccccc1)C(=O)NCc1ccccc1")
"rule met"

Could you now consider this next compound?
For this compound, is measured composite z-score -0.2 or higher? CCCCN1CC=CC23O[C@@H]4/C=C\CCC(C)OC(=O)C4[C@H]2C(=O)N(C(C)CO)[C@@H]3C1=O (some centres undefined)
rule not met
